Source: paper PMC8920630

# run-description: in vitro
# particulars: PAMPA
measured-property: Papp
Field: value (include unit after the number)

So for `C[C@H]1[C@H](C)CC[C@]2(C(=O)O)CC[C@]3(C)C(=CC[C@@H]4[C@@]5(C)C[C@@H](O)[C@H](O)[C@@](C)(CO)[C@@H]5[C@H](O)C[C@]43C)[C@H]12` , the logged Papp turned out to be 2.7 nm/s
